System: NCI-H226 lung
Assay: NCI-60 one-dose screen, 48 h
Details: 10 µM unless noted
About 83,000 compounds went through this panel and 20% of them were active in at least one assay; those are over-represented in the sample as a whole. Active and inactive are the calls of the source. The calls were made as follows: active = growth percent below 10; inactive = the rest.
Please reply with one of these outcomes: active, inactive

Illustrative cases are given below, each with its answer.
1) CCN1C(=O)N(CC)C2C1NN=c1s/c(=C\c3ccc(F)cc3)c(=O)n12 (configuration not stated)	inactive
2) C#Cc1c(I)n(C2OC(CO[Si](C)(C)C(C)(C)C)C3OC(C)(C)OC32)c(=O)[nH]c1=O (configuration not stated)	inactive
3) C#CCOc1cccc(Nc2ncnc3c(NC(=O)CCl)cccc23)c1	inactive
4) C=CCNc1nc(O)c(/C=C2\C=Nc3ncccc32)s1	inactive
5) Cc1ccc2nc(/C=C/c3ccc(N(C)C)cc3)cc(C)c2c1	inactive
6) CN(C)CCOc1ccc(/C(=C(/CCCCCCCCCC[P+](c2ccccc2)(c2ccccc2)c2ccccc2)c2ccccc2)c2ccccc2)cc1	active
7) COc1cc(C(=O)c2c(-c3ccccc3)oc3ccccc23)cc(OC)c1O	inactive
8) Oc1ccc(Cc2ccc(O)c3ncccc23)c2cccnc12	inactive
9) Cc1ccc(C2(C)NC(=O)N(CC(=O)Nc3cccc(C)c3)C2=O)cc1 (configuration not stated)	inactive
10) COc1cc2c(cc1-c1c(C)noc1C)ncc1nc(C3CCOCC3)n(C3CCC(OC(F)F)CC3)c12 (configuration not stated)	inactive

Can you look up the reported call for `C#C[C@]1(O)CC[C@H]2[C@@H]3CC=C4c5sc(-c6cccc(C)c6)nc5CC[C@]4(C)[C@H]3CC[C@@]21C` for me?
inactive

Look up the recorded call for COc1ccccc1/C=C/C1=C(C)CCC(c2ccccc2OC)C1C (configuration not stated) in this test.
inactive

Identify the outcome logged in this assay for the compound shown: `CC(C)(C)[C@H](OCc1cn([C@H]2C[C@@H](O)[C@@H](CO)O2)c(=O)[nH]c1=O)c1ccc(C#Cc2ccccc2)cc1[N+](=O)[O-]`
inactive

Entry `Oc1ccc(C2OCCO2)c2cccnc12` : call = ?
inactive

Name the outcome recorded for `CO[C@]12C=C/C(=C(/C(=O)OCc3cccnc3)C(=O)CCCCCCCC[C@]3(OC)C=C/C(=C(/C(=O)OCc4cccnc4)C(=O)CCCCCCCC1)O3)O2` in the assay.
active

What classification did `CCCS(=O)(=O)Nc1cccc(Nc2ncnc3cc(NC(=O)CCl)ccc23)c1Cl` end up with in this test?
active

What is the recorded call for this compound in the test? `COc1ccc(CNc2ccc3nc(CCC4CCCCC4)[nH]c3c2)cc1`
inactive

---

System: SK-MEL-5 melanoma
Test: NCI-60 one-dose screen, 48 h (100 = growth as untreated, 0 = no growth, -100 = all killed)
Settings: 10 µM unless noted
About 83,000 compounds went through this panel and 20% of them were active in at least one assay; those are over-represented in the sample as a whole.
Assay Endpoint: growth (%)
Response body: numeric value in %, unit text excluded.

These solved cases illustrate the format of a correct answer.
1. O=c1n(C2OC(CO)C(O)C2O)ccc2nccn12 (stereo not drawn)	114
2. C=CC(=O)NCc1cccc(Nc2ncc(Br)c(NCCCNC(=O)C3CCC3)n2)c1	-39.8
3. FC(F)(F)c1cc(N2CCCCC2)nc(NCCCNc2ccnc3cc(Cl)ccc23)n1	27.1
4. O=C(Nc1ccccc1CNc1nc(Nc2ccc(OCCN3CCCC3)cc2)ncc1Cl)NC1CCCCC1	64.6
5. O=C1CCc2c(sc3[nH]c(=S)n(-c4cc(C(F)(F)F)cc(C(F)(F)F)c4)c(=O)c23)C1	-88.9

Read off the recorded growth for `COc1cccc(C(=O)Nc2cccc(NC(=O)c3ccccn3)c2)c1`
97.3

Please give the documented growth of `Cn1ccnc1C(=O)/C=C/c1ccc(C(=O)Nc2c(F)c(F)c(F)c(F)c2F)cc1`
53.1

Please give the documented growth of `COc1ccc(N2C(=O)/C(=C/C(Cl)=C/c3ccc([N+](=O)[O-])cc3)SC2=S)cc1`
29.3

---

Tested on: IGROV1 ovarian
Assay: NCI-60 one-dose screen, 48 h
Details: 10 µM unless noted
Protocol: Growth inhibition of the IGROV1 human tumor cell line is measured as a screen for anti-cancer activity. Cells are grown in 96 well plates and exposed to the test compound for 48 hours. Compounds are tested at a single concentration, which is 10^-5 M for most compounds. The reported endpoint is percent growth (GI% or GIPRCNT), where numbers from 0 - 100% represent growth inhibition, and numbers from -100% - 0 represent cell death. For example, a value of 40 represents 60% growth inhibition. […]
About 83,000 compounds went through this panel and 20% of them were active in at least one assay; those are over-represented in the sample as a whole. Active and inactive are the calls of the source. Rule for the calls: active = growth percent below 10; inactive = the rest.
Log the outcome using a class from active, inactive

1. COc1cc2c(cc1-c1c(C)noc1C)ncc1nc(C3CCOCC3)n(C3CCC(OC(F)F)CC3)c12 (centres undefined)	inactive
2. CC1=C([Se]CC(OC(=O)[C@@H](CO)NC(=O)OC(C)(C)C)C(=O)NCCCCCC(=O)OCc2ccccc2)C(=O)c2ccccc2C1=O (some centres undefined)	active

// return assay outcome for CN1C(=O)N(C)C2C1NN=c1s/c(=C\c3ccc(F)cc3)c(=O)n12 (centres undefined)
inactive

Identify the outcome logged in this assay for the molecule shown: `Nc1cc(-c2ccc(Cl)cc2)nn1-c1nc(-c2ccc(Br)cc2)cs1`
inactive

For `COC(=O)CNC(=O)c1ccc(NC(=O)c2[nH]c(C)c(Cl)c2Cl)c(O[C@H]2CCNC2)c1` , which call appears in the assay record?
inactive

So what was the verdict on `COc1ccc(-c2cn(Cc3ccc4c(Br)cc(Br)c(O)c4n3)nn2)cc1` in this test?
inactive

Can you look up the reported call for `N#Cc1c(-c2ccc(Cl)cc2)nc(NN=Cc2cccc(Cl)c2)nc1N1CCOCC1` for me?
inactive

In this assay, the call recorded for `CC(C)(C)CC(C)(C)Nc1c(-c2c(O)c3ccccc3oc2=O)nc2sccn12` was what?
inactive

I would be grateful if you could indicate the recorded call for O=C(OCC(O)C(=O)NC12CC3CC(CC(C3)C1)C2)c1cccc(Br)c1 (centres undefined) .
inactive

Kindly provide the recorded test outcome for the following molecule: `Cc1cc(=O)oc2cc(Oc3nc(-c4ccccc4)cn4c(-c5ccccc5)cnc34)ccc12`
inactive

Please state the recorded outcome for this molecule: `CSc1nc(CC(C)C)c(C#N)c(=O)n1C`
inactive

Look up the recorded call for `O=C1NCCS(=O)(=O)/C1=C\C=C\c1cccc(C(F)(F)F)c1` in this test.
inactive

Fill in: this test's call for `CC(C)c1nc(N(C)S(C)(=O)=O)nc(-c2ccc(F)cc2)c1/C=C/C(=O)C[C@@H](O)CC(=O)O` is ___
inactive

Name the outcome recorded for `CN(C)C(=S)NN=C(c1ccccn1)c1ccccn1` in the assay.
inactive

# fetch the recorded call for `CN1CCN(CCCNC(=O)c2c3c(n4ccccc24)C(=O)c2ncccc2C3=O)CC1` here
active

Recorded test call requested for `CCOC(=O)c1c(N)sc2cc(O)ccc12`
inactive

Test call, this molecule: `O=C1NC(=O)C(=Cc2cc(-c3ccc(Cl)cc3)n(-c3ccccc3)n2)C(=O)N1`
inactive

Dear colleague, could you share the recorded outcome for CCOC(=O)C1=C(c2ccccc2)N=C2N(c3ccccc3)N=C(C(C)=O)N2C1c1ccc(Br)cc1 (centres undefined) when you have a moment?
inactive

Dear colleague, could you share the recorded outcome for `COc1ccc2c(O)cc3c(c2c1)[C@H](CCl)CN3C(=O)c1cc2cc(NC(=O)CCN3CCOCC3)ccc2[se]1` when you have a moment?
active

---

System: SNB-19 CNS
Assay: NCI-60 one-dose screen, 48 h (100 = growth as untreated, 0 = no growth, -100 = all killed)
Conditions: 10 µM unless noted
About 83,000 compounds went through this panel and 20% of them were active in at least one assay; those are over-represented in the sample as a whole.
Cut-off 90% on growth: below means yes (1), at or above means no (0).

1. COc1ccc(Nc2nccc(Nc3ccc4[nH]ncc4c3)n2)cc1	yes (1)

For `COc1cc(/C=C2\CN(S(=O)(=O)c3ccc(C)cc3)C/C(=C\c3cc(CN4CCCC4)c(O)c(OC)c3)C2=O)cc(CN2CCCC2)c1O` , is the recorded growth below the cut-off of 90%?
yes (1)

Bench note: check whether `COc1ccc(-c2cc(-c3ccc(N(C)C)cc3)nc(NC(=O)c3cccnc3)n2)cc1` shows growth below 90%
no (0)

I'd appreciate it if you could check whether `CN(C)C(=O)OCc1ccc2c(Cl)cc(Cl)c(O)c2n1` has growth smaller than 90%.
yes (1)

Strictly below 90%: is that where growth of `O=c1ccc2nc(-c3ccccc3)nn(-c3ccccn3)c-2c1` sits?
no (0)

Dear reviewer, please state whether `COc1cc(C(=O)c2c(-c3ccccc3)oc3ccccc23)cc(OC)c1O` has growth strictly beneath 90%.
yes (1)

Field: below-cutoff. Rule: recorded growth strictly less than 90%. Subject: CCOC(=O)C1=C(C)N(C)C(=O)N(C)C1c1ccccc1 (centres undefined)
no (0)

Entry source: PubChem BioAssay (NCI)
